- testProtocol: label from the status in PepcDB records
experimentalReadout: protein production

MSLTSSAELAEVDTLARSLLLYRSRLSEYAHANPGFSGSPADSALGLPAWFRKPVRLQGYIAAGTSYAFIASPPAGLAAAVDAGTESDLVGVRRNGQLVTRRLGAIAIALPAPIPEGAVVAVKEGHHHHHH
not failed
MVVTCPKCGAKNRLGTPPPGQVPVCGACKTPLPWVVEADEKGFAQEVAGAPLTLVDFFAPWCGPCRLVSPILEELARDHAGRLKVVKVNVDEHPGLAARYGVRSVPTLVLFRRGAPVATWVGASPRRVLEERLRPYLEGR
not failed

* * *

- testProtocol: label from the status in PepcDB records
experimentalReadout: protein production

Answered examples (8):
MQEGQNRKTSSLSILAIAGVEPYQEKPGEEYMNEAQLAHFRRILEAWRNQLRDEVDRTVTHMQDEAANFPDPVDRAAQEEEFSLELRNRDRERKLIKKIEKTLKKVEDEDFGYCESCGVEIGIRRLEARPTADLCIDCKTLAEIREKQMAG
not failed
MKKLIIAALGLTLILSGCAPKLDSNDKVVQKDDKKAETGIMTKNQISSNYYKTVLPYKASKSRGLVVSNIYSRYDINELESGLMRVSQNKYSPDNYLFQEGQYLDKETLEKWLDRKSEKNPNGLNPESNGDGKDRKPIYLAHILEQDYLKQTDKDTVALGGISIALAMNSVDYYQKEQYGDTFEQEISDSDLLAQGKEMSGTVLNRIRQTKGLENVPVTIAIYKQGPRDAVAPGNFLTYATANGDSLSSWKDVEEKNYVLPSTESAKDHKTDNDNFLNFKKAIEDYYPNFTGVVGRARYEDGQLAELSIDIPLQFYGQAEIIGFTQYVTDLVGQHIPKTADLQVNISTSDGPAALITRKANEDAATAHIYD
failed
MGSVPMGHKRISFHIVQTTRSGDRSASRTSVEEASDQGPSPWTTADSAIFQLRWSCVWRRAVSTSANIEDGADAAFVASPPPFGAGVADLYQALLVPILFEPYALEMAIVAERSKPVSVLEVAAGTGALTRALRAKLDPAAEIVATDLSQAMIDVGAPSVTMSRTHWMHADAQDLPFAPLMFDLVVCQFGVMFFPDKPKAYHEAKRVLRSGGRLLFSTWDSLAANDFARCVDECLTGLFPSDPPDFLGRLPYSYFDPSLIKAEVSSAGFKAVSCERLELASIAATSQDVATAFCRGTPLSGEIEWRAPERMSEIVDEVAERVASRYGARPCGSMSALVVSGRAP
failed
MASSAVSLQSISMTTLNNLSCNQQFHRSSLLGSSKSFQNLGISSNGSDFSYPSSFTAKKNLTASRALSQNGNIENPRPSKVQELSVYEINELDRHSPKILKNAFSLMFGLGDLVPFTNKLYTGDLKKRVGITAGLCVVIEHVPEKKGERFEATYSFYFGDYGHLSVQGPYLTYEDSFLAITGGAGIFEGAYGQVKLQQLVYPTKLFYTFYLKGLANDLPLELTGTPVPPSKDIEPAPEAKALEPSGVISNYTN
not failed
MELQDTIFKRQSVRKFKNQDVSDEDILKMIKAAGAAPSGKNIQNWHFVVIKRRDLMEKIADVITKKQQEILVEMDKVSVDKANRFRKFVKNFTLFYLKAPVLVLVFTKVYNPSGYYELELIDAPKETIDKLFIRNPGMQSLGAAIENFTLSAIELGYGSCWLTSQNYAADEIEAVLEAETGFEKGEYFLGAMLALGVPEDNLKSPSKKPVEEICTFIK
not failed
ADELVMSNLHSKENYDKYSEPRGYPKGERSLNFEELKDWGPKNVIKMSTPAVNKMPHSFANLPLRFGRNVQEERSAGATANLPLRSGRNMEVSLVRRVPNLPQRFGRTTTAKSVCRMLSDLCQGSMHSPCANDLFYSMTCQHQEIQNPDQKQSRRLLFKKIDDAELKQEK
failed
MLGGQYYLIAFILAVIVVWFTTPLINHWGRRAGYVDQPSARKMHHRPMVRLGGVSIFLGSLVALLVVWNLGAFGAMSTKGEWEVWGVVLGGLAFFGIGLFDDLFDLSPFSRLLAQVAIASVVWNMGVRIDFFTLPFLGNLVYLNILSLPITVIWLVGLANAINWIDGLDGLAAGVCGIAAVVLFVLCLFMEQSEAALIAAALAGGALGFLRYNFNPAQIFMGDGGAYFMGFTLGAVAVIGLVKVAAMATVAVTAVLLPYLVLAVPILDMSVVILSRVIKGKSPFKADKGHLHHRLINAGISHRLTVLFIYALTLWAGSLALGFSNIPSGWGFAIGATVLLIYLGWQVWRNSRNVGEQD
failed
MYSGFTREKSDLRTEDVEITKEPFTLLIMGIEDYATDGQNGRTDSLMFATVNPKTQKISLMSIPRDSRVPIVGKNKEDKINAAHAYGGEEMAIKTVEGFLKVPVDHYVKIDFQGFKGIVDAVGGVTVDVPFDFWERSDVDYYKKIQFKQGQQELNGEEALAYVRMRKQDPNGDYGRAARQRQLLAAVAQKLNSTSTVFKIKDLTSVVGKYIKTDIPISDGLALYKKLSGFDPSTIQTLKLEGEDKKIGGIYYFLPDPNGVEAVRNEIKKELGLEHHHHHH
not failed

Look up protein production: MTRADCRSRLMEVATELFAQKGFYGVSIRELAQAAGASISMISYHFGGKEGLYAAVLQEQFACFGQLDDIRGQAGDPLAVMTAYLRWTIQRHRNNPQLLRFYTSELTNPTPCFAAIVSPAIASVIRLLAESIEAGMTRGLFRRDLHAVNSALALAGMVNYFFLSTLATEGLTSHSPDQDEELIRQYVAIFTRGIMADGGAAPA
not failed

Next record, please: MSRRDQLFSAMTASYVIAVTLAIVIAAIFAPVIWNGVPSGGDDDPSVAVITLRGGTTDANVNAVKQDLREARTNESIEAVVLRVDSPGGPVDSSEEFYLAVNRTASEMPVVAYVEGTAASGGYYGITPADEIVVKPSSNVGSIGVIVQAPLSLIEQVEQQGETFVRSGPDKAQISKDSLREDIEVLQRSFVGTVMRHRGEQLTVSREEVANGGTYLGAQATENGFADRIGDTGLAIERAAALSDDIEGDQYDVVYQGSGGAEFNVIIVPAGAETVQGANNVTYLVHPDNSETTFREPVKYYAVWGIPAEDNNATVIRND
failed

Next record, please: MYSPIPPSLFQQIQPAYCGQEFILLRDNEEYKEIIVQAGRTYEISLMVESENSYIAWDFSLTQGKITMVIIFKTKYVTVNHLIAFSDD
failed
